- Test system: SK-MEL-28 melanoma
- procedure_details: NCI-60 one-dose screen, 48 h (100 = growth as untreated, 0 = no growth, -100 = all killed)
- cond: 10 µM unless noted
This is part of a sample that, as a whole, favours compounds with a hit. Of some 83,000 tested, about 20% had one in any assay.
Categories are defined by ranges of growth, namely bin 0 = under 50%, bin 1 = from 50% up to 80%, bin 2 = 80% and over

Solved entries (count: 8):
molecule	assayed_target	classification
Cn1c2nc3ccccc3c-2cc2ccccc21	SK-MEL-28 melanoma	bin 1
COc1cc(C(=O)c2cc(C(C)=O)c3c(C)cccn23)cc(OC)c1OC	SK-MEL-28 melanoma	bin 2
COc1cccc2c1[C@H](OC)[C@]13O[C@@]1(C2=O)[C@H](O)[C@H](C)[C@@](O)(C(=O)[C@@H]1O[C@H]1C)[C@@H]3O	SK-MEL-28 melanoma	bin 0
COc1ccc(/C=N/NC(=O)CSc2nc(-c3cnccn3)cc(-c3cccs3)c2C#N)cc1OC	SK-MEL-28 melanoma	bin 2
CN1CCN(Cc2ccc(NC(=O)c3cncc(C#Cc4cnc5ccc(O[C@@H]6CCOC6)nn45)c3)cc2C(F)(F)F)CC1	SK-MEL-28 melanoma	bin 0
Cc1ccc(Nc2nc(SC(C)C)nc(-c3ccccc3)c2C#N)cc1	SK-MEL-28 melanoma	bin 2
CN1CCN(Cc2ccc(NC(=O)c3cncc(C#Cc4cnc(N)nc4)c3)cc2C(F)(F)F)CC1	SK-MEL-28 melanoma	bin 0
O=C(/C=C/c1csc(Br)n1)NO	SK-MEL-28 melanoma	bin 0

QUERY: # bin lookup: classify `O=C(CSc1nc2ccccc2c(=O)n1-c1ccccc1)N/N=C/c1ccc(Oc2ccc(Cl)cc2)cc1` by its growth
RESULT: bin 1

QUERY: # bin lookup: classify `O=C(CSc1nnc(-c2cccs2)n1-c1ccccc1)Nc1ccccc1` by its growth
RESULT: bin 1

QUERY: # bin lookup: classify `C#C[C@]1(O)CC[C@H]2[C@@H]3CC=C4c5sc(N6CCN(C)CC6)nc5CC[C@]4(C)[C@H]3CC[C@@]21C` by its growth
RESULT: bin 0

QUERY: # bin lookup: classify `CCOC(=O)c1c(N)c(C#N)cn1Cc1ccc(Cl)cc1Cl` by its growth
RESULT: bin 2

QUERY: # bin lookup: classify Cc1[nH]c(C(=O)Nc2ccccc2OCc2cccc(C(=O)NC3CCCNC3)c2)c(Cl)c1Cl (centres undefined) by its growth
RESULT: bin 0

QUERY: # bin lookup: classify `COc1cc(NC(=O)Nc2cccc(-c3cc(=O)c4c(OC)c(OC)c(OC)cc4o3)c2)cc(OC)c1OC` by its growth
RESULT: bin 1

QUERY: # bin lookup: classify `CC(=O)c1cc(C(=O)N2c3ccccc3Sc3ccccc32)n2c1ccc1ccccc12` by its growth
RESULT: bin 1

QUERY: # bin lookup: classify `N#Cc1nc(-c2ccc(Cl)cc2)oc1N1CCC(S(=O)(=O)N2CCOCC2)CC1` by its growth
RESULT: bin 2

QUERY: # bin lookup: classify `CC(=O)Nc1ccccc1-c1nc2ccccc2s1` by its growth
RESULT: bin 2
